- target.entity: C-src kinase (Homo sapiens)
- Construct: made in house; host or cells: baculovirus-infected insect cells
- method: C-src kinase assay
- Type: biochemical
- condition.context: at 50 μM; read-out: Inhibition of Protein Tyrosine Kinases, C-src, % Inhibition
observed.property: inhibition at 50 µM (%)
# output: bare number, implied unit %

Cc1cccc(-c2cc3cnc(N)nc3nc2N)c1C
44.5
Cc1cc(C)cc(-c2cc3cnc(N)nc3nc2NC(=O)NC(C)(C)C)c1
0
CNc1nc2nc(N)ncc2cc1-c1ccc(OC)cc1
15.9
CNc1ncc2cc(-c3ccccc3)c(NC)nc2n1
52.8

Ask: Provide C-src kinase (Homo sapiens) inhibition at 50 µM reading for `COc1cccc(OC)c1-c1cc2cnc(N)nc2nc1N` .
Result: 0

Ask: Provide C-src kinase (Homo sapiens) inhibition at 50 µM reading for `Nc1nc2nc(NCCCN3CCOCC3)ncc2cc1-c1c(Cl)cccc1Cl` .
Result: 110

Ask: Provide C-src kinase (Homo sapiens) inhibition at 50 µM reading for `COc1ccccc1-c1cc2cnc(N)nc2nc1N` .
Result: 46.6

---

- target.entity: C-src kinase (Homo sapiens, UniProt P12931)
- Construct: made in house; host or cells: baculovirus-infected insect cells
- Sequence (P12931 whole entry): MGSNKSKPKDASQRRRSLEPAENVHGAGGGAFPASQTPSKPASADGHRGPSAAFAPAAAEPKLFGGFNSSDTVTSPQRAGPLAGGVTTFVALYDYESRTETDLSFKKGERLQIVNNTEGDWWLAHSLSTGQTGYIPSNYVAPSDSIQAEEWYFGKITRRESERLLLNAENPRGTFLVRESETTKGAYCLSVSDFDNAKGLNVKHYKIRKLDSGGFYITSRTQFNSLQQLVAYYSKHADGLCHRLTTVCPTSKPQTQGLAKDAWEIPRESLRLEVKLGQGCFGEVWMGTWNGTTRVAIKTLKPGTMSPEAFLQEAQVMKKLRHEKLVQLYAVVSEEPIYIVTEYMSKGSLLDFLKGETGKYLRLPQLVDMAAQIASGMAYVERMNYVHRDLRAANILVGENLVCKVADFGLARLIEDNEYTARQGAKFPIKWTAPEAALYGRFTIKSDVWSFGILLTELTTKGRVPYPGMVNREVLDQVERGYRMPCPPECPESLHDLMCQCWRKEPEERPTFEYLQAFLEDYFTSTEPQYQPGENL
- method: C-src kinase assay
- Type: biochemical
- condition.context: at 50 μM; read-out: Inhibition of Protein Tyrosine Kinases, C-src, % Inhibition
observed.property: inhibition at 50 µM (%)
# output: bare number, implied unit %

Cc1cc(C)c(C)c(-c2cc3cnc(N)nc3nc2NC(=O)NC(C)(C)C)c1C
17.1

Ask: Look up and report measured inhibition at 50 µM for this entry: `COc1cccc(-c2cc3cnc(N)nc3nc2N)c1`
Result: 0.8

Ask: Look up and report measured inhibition at 50 µM for this entry: `Nc1ncc2cc(-c3cccc(Cl)c3Cl)c(N)nc2n1`
Result: 53.6

Ask: Look up and report measured inhibition at 50 µM for this entry: `CC(C)(C)NC(=O)Nc1nc2nc(N)ncc2cc1-c1ccccc1`
Result: 77.6

Ask: Look up and report measured inhibition at 50 µM for this entry: `Cc1cc(C)c(C)c(-c2cc3cnc(N)nc3nc2N)c1C`
Result: 0.5

Ask: Look up and report measured inhibition at 50 µM for this entry: `CN1CCN(CCCNc2ncc3cc(-c4c(Cl)cccc4Cl)c(NC(=O)NC45CC6CC(CC(C6)C4)C5)nc3n2)CC1`
Result: 100

Ask: Look up and report measured inhibition at 50 µM for this entry: `Cc1ccccc1-c1cc2cnc(NC(=O)NC(C)(C)C)nc2nc1NC(=O)NC(C)(C)C`
Result: 33.6

Ask: Look up and report measured inhibition at 50 µM for this entry: `CN(C)CC(C)(C)CNc1ncc2cc(-c3c(Cl)cccc3Cl)c(NC(=O)NC(C)(C)C)nc2n1`
Result: 46.8

Ask: Look up and report measured inhibition at 50 µM for this entry: `CN1CCN(CCCNc2ncc3cc(-c4c(Cl)cccc4Cl)c(NC(=O)NC4CCCCC4)nc3n2)CC1`
Result: 106

---

- target.entity: mouse PDGF-β receptor tyrosine kinase (Mus musculus)
- Construct: a fragment of DNA that codes for the intracellular tyrosine kinase domain
- Sequence (P05622 599-961 limits assumed): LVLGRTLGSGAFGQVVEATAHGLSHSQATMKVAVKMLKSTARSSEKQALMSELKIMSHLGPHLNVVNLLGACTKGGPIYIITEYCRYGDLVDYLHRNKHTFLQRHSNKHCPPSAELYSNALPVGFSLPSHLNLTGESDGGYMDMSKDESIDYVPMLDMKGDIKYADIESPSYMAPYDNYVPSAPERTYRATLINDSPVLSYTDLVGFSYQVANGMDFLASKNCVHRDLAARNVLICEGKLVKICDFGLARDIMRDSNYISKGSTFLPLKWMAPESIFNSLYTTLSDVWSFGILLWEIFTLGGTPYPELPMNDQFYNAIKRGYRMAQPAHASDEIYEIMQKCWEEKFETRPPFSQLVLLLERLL
- method: PDGF receptor tyrosine kinase assay
- condition.context: read-out: Inhibition of Protein Tyrosine Kinases, PDGF, IC50
observed.property: IC50 (µM)
# output: bare number, implied unit µM

Record excerpt, results attached:
CCN(CC)CCCNc1ncc2cc(-c3c(C)cccc3C)c(NC(=O)NC(C)(C)C)nc2n1
0.804
CC(C)(C)NC(=O)Nc1nc2nc(N)ncc2cc1-c1c(Cl)cccc1Cl
1.25
CCN(CC)CCCNc1ncc2cc(-c3c(Cl)cccc3Cl)c(N=CN(C)C)nc2n1
32.9

Then there is this compound:
Ask: Look up and report measured IC50 for this entry: `CN(C)C=Nc1ncc2cc(-c3c(Cl)cccc3Cl)c(NC(=O)NC(C)(C)C)nc2n1`
Result: 17.8

---

- target.entity: Human EGF receptor tyrosine kinase (Homo sapiens)
- Construct: isolated from A431 epidermoid carcinoma cells; endogenous in cells
- method: EGF receptor tyrosine kinase assay
- condition.context: read-out: Inhibition of Protein Tyrosine Kinases, EGF, IC50
Kindly apply the following: Satisfied if IC50 is less than 7 µM, Not satisfied in every other case.

Ask: Input Cc1cccc(C)c1-c1cc2cnc(N)nc2nc1NC(=O)NC(C)(C)C [Example 6] ; condition: IC50 strictly below 7 µM. Does it hold?
Result: Satisfied

Ask: Input Cc1ccccc1-c1cc2cnc(N)nc2nc1N [Example 90] ; condition: IC50 strictly below 7 µM. Does it hold?
Result: Not satisfied

Ask: Input Nc1cc2nc(N)c(-c3c(Cl)cccc3Cl)cc2cn1 [Example 18] ; condition: IC50 strictly below 7 µM. Does it hold?
Result: Not satisfied

Ask: Input Cc1ccccc1-c1cc2cnc(N)nc2nc1NC(=O)NC(C)(C)C [Example 5] ; condition: IC50 strictly below 7 µM. Does it hold?
Result: Satisfied

Ask: Input Nc1cc2nc(N)c(-c3ccccc3Cl)cc2cn1 [Example 17] ; condition: IC50 strictly below 7 µM. Does it hold?
Result: Not satisfied

---

- target.entity: Human EGF receptor tyrosine kinase (Homo sapiens, UniProt P00533)
- Construct: isolated from A431 epidermoid carcinoma cells; endogenous in cells; host or cells: A431 epidermoid carcinoma cells (Triton lysate, wheat germ agglutinin eluate)
- Sequence (P00533 25-1210): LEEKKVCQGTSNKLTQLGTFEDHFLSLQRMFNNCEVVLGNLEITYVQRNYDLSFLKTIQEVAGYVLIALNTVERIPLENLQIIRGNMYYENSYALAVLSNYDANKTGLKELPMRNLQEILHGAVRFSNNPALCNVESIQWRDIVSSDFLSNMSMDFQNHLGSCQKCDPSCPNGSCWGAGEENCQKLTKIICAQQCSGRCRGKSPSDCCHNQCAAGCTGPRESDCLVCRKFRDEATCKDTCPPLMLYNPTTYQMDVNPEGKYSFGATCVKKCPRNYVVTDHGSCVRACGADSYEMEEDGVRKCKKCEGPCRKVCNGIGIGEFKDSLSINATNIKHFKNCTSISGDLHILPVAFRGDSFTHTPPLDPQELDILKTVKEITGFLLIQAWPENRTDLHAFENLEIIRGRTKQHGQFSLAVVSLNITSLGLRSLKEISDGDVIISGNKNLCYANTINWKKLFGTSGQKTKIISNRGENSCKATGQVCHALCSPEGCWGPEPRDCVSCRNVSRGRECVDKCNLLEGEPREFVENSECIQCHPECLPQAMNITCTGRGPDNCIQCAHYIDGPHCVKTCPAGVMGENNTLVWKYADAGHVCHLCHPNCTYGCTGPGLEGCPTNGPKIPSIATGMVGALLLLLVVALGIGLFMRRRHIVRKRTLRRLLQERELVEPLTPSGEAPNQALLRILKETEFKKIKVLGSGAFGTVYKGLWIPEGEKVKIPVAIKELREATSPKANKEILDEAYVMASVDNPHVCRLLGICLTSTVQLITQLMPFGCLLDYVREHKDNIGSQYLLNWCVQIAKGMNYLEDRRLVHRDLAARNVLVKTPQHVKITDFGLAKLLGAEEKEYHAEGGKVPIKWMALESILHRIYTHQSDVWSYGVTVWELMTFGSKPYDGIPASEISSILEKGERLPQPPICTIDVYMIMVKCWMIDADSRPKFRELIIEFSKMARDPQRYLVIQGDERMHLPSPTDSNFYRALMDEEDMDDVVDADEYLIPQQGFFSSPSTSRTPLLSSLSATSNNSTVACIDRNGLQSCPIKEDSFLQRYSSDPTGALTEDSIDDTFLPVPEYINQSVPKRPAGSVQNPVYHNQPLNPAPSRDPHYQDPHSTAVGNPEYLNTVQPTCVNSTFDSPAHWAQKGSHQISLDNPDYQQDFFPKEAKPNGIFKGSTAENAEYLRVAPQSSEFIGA
- method: EGF receptor tyrosine kinase assay
- Type: biochemical
- condition.context: at 50 μM; read-out: Inhibition of Protein Tyrosine Kinases, EGF, % Inhibition
Entries and their inhibition at 50 µM values follow.
# output: bare number, implied unit %

Record excerpt, results attached:
CC(C)(C)NC(=O)Nc1ncc2cc(-c3c(Cl)cccc3Cl)c(NC(=O)NC(C)(C)C)nc2n1 [Example 2]
52.3
CN(C)C=Nc1ncc2cc(-c3c(Cl)cccc3Cl)c(NC(=O)NC(C)(C)C)nc2n1 [Example 79]
60.9
Nc1ncc2cc(-c3c(Cl)cccc3Cl)c(NC3=NCCO3)nc2n1 [Example 24]
58.3

Ask: Provide Human EGF receptor tyrosine kinase (Homo sapiens, UniProt P00533) inhibition at 50 µM reading for CCNC(=O)Nc1nc2nc(N)ncc2cc1-c1c(Cl)cccc1Cl [Example 22] .
Result: 90.4

---

- Test system: V-src kinase
- method: V-src kinase assay
- Assay type: biochemical
- condition.context: at 50 μM
- Excerpt: V-src and C-src Kinase Assays V-src or C-src kinase is purified from baculovirus infected insect cell lysates using an antipeptide monoclonal antibody directed against the N-terminal 2-17 amino acids. […] The filters are punched, counted in a liquid scintillation counter, and the data examined for inhibitory activity in comparison to a known inhibitor such as erbstatin. […]
observed.property: Inhibition of Protein Tyrosine Kinases, V-src, % Inhibition (%)
# output: bare number, implied unit %

Nc1ncc2cc(-c3c(Cl)cccc3Cl)c(N)nc2n1 [Example 1]
-2.4
Cc1ccccc1-c1cc2cnc(N)nc2nc1NC(=O)NC(C)(C)C [Example 5]
23.3
COc1ccccc1-c1cc2cnc(N)nc2nc1N [Example 100]
6.0
Cc1ccccc1-c1cc2cnc(N)nc2nc1N [Example 90]
16.8
Nc1ncc2cc(-c3cccc(Cl)c3Cl)c(N)nc2n1 [Example 83]
-9.8
CCNC(=O)Nc1nc2nc(N)ncc2cc1-c1c(Cl)cccc1Cl [Example 22]
46.9

Ask: Look up and report measured Inhibition of Protein Tyrosine Kinases, V-src, % Inhibition for this entry: CNc1nc2nc(N)ncc2cc1-c1ccc(OC)cc1 [Example 13]
Result: 21.2

Ask: Look up and report measured Inhibition of Protein Tyrosine Kinases, V-src, % Inhibition for this entry: Cc1ccccc1-c1cc2cnc(N)cc2nc1N [Example 16, 3-o-Tolyl-[1,6]naphthyridine-2,7-diamine]
Result: 10.3

Ask: Look up and report measured Inhibition of Protein Tyrosine Kinases, V-src, % Inhibition for this entry: CC(C)(C)NC(=O)Nc1nc2nc(N)ncc2cc1-c1c(Cl)cccc1Cl [Example 3]
Result: 46.8

Ask: Look up and report measured Inhibition of Protein Tyrosine Kinases, V-src, % Inhibition for this entry: CCN(CC)CCCNc1ncc2cc(-c3c(Cl)cccc3Cl)c(NC(=O)NC(C)(C)C)nc2n1 [Example 21]
Result: 49.4

---

Entries and their IC50 values follow.
- target.entity: mouse PDGF-β receptor tyrosine kinase (Mus musculus)
- Construct: a fragment of DNA that codes for the intracellular tyrosine kinase domain; made in house; host or cells: Sf9 insect cells (baculovirus), cell lysate
- method: PDGF receptor tyrosine kinase assay
- Format: biochemical
- condition.context: read-out: Inhibition of Protein Tyrosine Kinases, PDGF, IC50
# output: bare number, implied unit µM

Record excerpt, results attached:
CCN(CC)CCCNc1ncc2cc(-c3c(Cl)cccc3Cl)c(N)nc2n1 [Example 20]
46.1
CN(C)CC(C)(C)CNc1ncc2cc(-c3c(Cl)cccc3Cl)c(NC(=O)NC(C)(C)C)nc2n1 [Example 30]
1.78
CC(C)(C)NC(=O)Nc1nc2nc(N)ncc2cc1-c1c(Br)cccc1Br [Example 88]
0.711

Ask: Provide mouse PDGF-β receptor tyrosine kinase (Mus musculus) IC50 reading for CC(C)(C)NC(=O)Nc1nc2nc(N)ncc2cc1-c1c(F)cccc1F [Example 87] .
Result: 1.88

Ask: Provide mouse PDGF-β receptor tyrosine kinase (Mus musculus) IC50 reading for CN1CCN(CCCNc2ncc3cc(-c4c(Cl)cccc4Cl)c(NC(=O)Nc4ccc(C(F)(F)F)cc4)nc3n2)CC1 [Example 48] .
Result: 5.32

Ask: Provide mouse PDGF-β receptor tyrosine kinase (Mus musculus) IC50 reading for CC(C)(C)NC(=O)Nc1ncc2cc(-c3c(Cl)cccc3Cl)c(NC(=O)NC(C)(C)C)nc2n1 [Example 2] .
Result: 10.2

Ask: Provide mouse PDGF-β receptor tyrosine kinase (Mus musculus) IC50 reading for CCN(CCO)CCCNc1ncc2cc(-c3c(Cl)cccc3Cl)c(N)nc2n1 [Example 70] .
Result: 31.4

Ask: Provide mouse PDGF-β receptor tyrosine kinase (Mus musculus) IC50 reading for Nc1cc2nc(N)c(-c3c(Cl)cccc3Cl)cc2cn1 [Example 18] .
Result: 21.3

Ask: Provide mouse PDGF-β receptor tyrosine kinase (Mus musculus) IC50 reading for CCCS(=O)(=O)Nc1nc2nc(N)ncc2cc1-c1c(Cl)cccc1Cl [Example 106] .
Result: 4.8

Ask: Provide mouse PDGF-β receptor tyrosine kinase (Mus musculus) IC50 reading for CC(C)NC(=O)Nc1nc2nc(N)ncc2cc1-c1c(Cl)cccc1Cl [Example 89] .
Result: 0.857
